Hello, the source for this data is PubChem BioAssay (NCI), in case you need it.

System: PC-3 prostate
Assay: NCI tumour cell line growth inhibition, 48 h
experimental_readout: TGI (µM)
Respond with the bare value in µM.

*Q* Entry under review: O=C(CCl)NCCNc1nccc(Nc2ccc(S(=O)(=O)Nc3ccccn3)cc2)n1 . Reported TGI?
*A* 7.45

*Q* // query: CN(C)c1ccc(/C=C/c2ccc(S(N)(=O)=O)cc2)cc1
*A* 34.8

*Q* // query: COc1ccccc1Cc1ccc(C2C=CC3(CC(=O)C=C3C)C(=O)C2)o1 (stereo unspecified)
*A* 38.3

*Q* // query: COc1nc2cccc(C(O)c3ccccc3)c2nc1-c1ccccc1 (stereo unspecified)
*A* 65.5

*Q* // query: CCCc1n(Cc2ccc3ccccc3c2)cc[n+]1Cc1ccc2ccccc2c1
*A* 3.49

###

System: NCI-H460 lung
The reply should be one of these categories: label 1 (active), label 0 (inactive)

Use these answered entries as a reference point.
record_smiles | group
Cn1c(=O)c(Oc2ccc(F)cc2F)cc2cnc(NC(C)(C)CO)nc21 | label 0
Nc1c(C(=O)Nc2ccccc2)sc2nc3c(cc12)CCCCC3 | label 0
COc1cc(C(=O)O[C@H](C(=O)NCCCNC(=O)[C@@H](OC(=O)c2cc(OC)cc3c(C)cccc23)[C@]2(C)CO2)[C@]2(C)CO2)c2cccc(C)c2c1 | label 1
COc1cc2c(c(OC)c1OC)-c1ccc(O)cc1[C@@H](NC(C)=O)CC2 | label 1

Here is another compound to look at.
*Q* Per the assay record, what outcome was assigned to COc1ccc2c(c1)c(-c1nc(-c3c[nH]c4ncccc34)cs1)cn2CCCN1CCCCC1 ?
*A* label 0

###

Test system: HT29 colon
Test: NCI tumour cell line growth inhibition, 48 h; in the data active = GI50 below about 0.43 µM; inactive = the rest
The reply should be one of these categories: active, inactive

Use these answered entries as a reference point.
compound | group
CCCCCCCCCCCCCCCCCc1nccn1CCOCCO | inactive
COc1ccc2c3c(Nc4cccc(/C(C)=N\O)c4)[nH]c4ccccc4c-3c(N=O)c2c1 | inactive
CC(=O)O[C@H]([C@H](OC(C)=O)[C@H](C)OC(C)=O)[C@@H](/C=C/[C@@H]1CC=CC(=O)O1)OC(C)=O | inactive
O=C(CC1(O)C(=O)N(Cc2ccccc2)c2ccc(Cl)cc21)c1ccc(C(=O)NCC2CCC3(CC2)OOC2(CCCCC2)OO3)cc1 (stereo not given) | active

Here is another compound to look at.
*Q* Per the assay record, what outcome was assigned to Cc1ccc2oc(=O)cc(/C(=C3/C=CC=N3)c3ccc[nH]3)c2c1 ?
*A* active

###

Documented TGI across a set of compounds
Test system: SNB-75 CNS
Assay: NCI tumour cell line growth inhibition, 48 h

// known answers, use as guide
compound | TGI
CC(O)C1(CNc2cc(Cl)nc(N)n2)CCCCC1 (configuration not stated) | > 100 µM
CNC(=O)NCNC(=O)NC | > 100 µM
C=CCNC(=S)N1CC(C)C(=O)Nc2cc(Cl)ccc21 (configuration not stated) | > 100 µM
Cc1cc(Cl)nc2nc(Cl)c(N)cc12 | 30 µM
COc1nc2cccc(C(O)c3ccccc3)c2nc1-c1ccccc1 (configuration not stated) | > 100 µM
O=C1CSC(c2c[nH]c3ccccc23)N1c1ccc(Cl)cc1 (configuration not stated) | > 100 µM

*Q* Recall the recorded TGI for O=C(Cc1ccccc1F)NC1=C(Cl)C(=O)c2ccccc2C1=O with SNB-75 CNS and state it.
*A* 8.06 µM
